target: Adenosine receptor A2b (Homo sapiens); assay: Binding affinity to human recombinant adenosine A2B receptor expressed in CHO cells by saturation experiment; type: cell-based
Sequence (P29275 whole entry): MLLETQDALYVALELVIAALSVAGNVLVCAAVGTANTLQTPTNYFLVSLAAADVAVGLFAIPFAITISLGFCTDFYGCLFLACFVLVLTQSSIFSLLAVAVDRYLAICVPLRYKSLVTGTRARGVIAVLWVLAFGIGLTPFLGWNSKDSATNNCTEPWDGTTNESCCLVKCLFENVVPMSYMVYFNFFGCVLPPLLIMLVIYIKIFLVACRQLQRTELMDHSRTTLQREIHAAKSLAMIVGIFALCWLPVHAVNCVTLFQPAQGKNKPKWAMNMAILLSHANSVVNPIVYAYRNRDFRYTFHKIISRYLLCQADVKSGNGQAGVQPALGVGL
Quantity Kind: Kd (nM)
Answers are plain numbers, in nM.

stdin: Kd for CCCn1c(=O)[nH]c2nc(-c3ccc(S(=O)(=O)N4CCN(c5ccc(Cl)cc5)CC4)cc3)[nH]c2c1=O ?
stdout: 0.403

* * *

Biological target: Adenosine receptor A1 (Homo sapiens, UniProt P30542)
Sequence (P30542 whole entry): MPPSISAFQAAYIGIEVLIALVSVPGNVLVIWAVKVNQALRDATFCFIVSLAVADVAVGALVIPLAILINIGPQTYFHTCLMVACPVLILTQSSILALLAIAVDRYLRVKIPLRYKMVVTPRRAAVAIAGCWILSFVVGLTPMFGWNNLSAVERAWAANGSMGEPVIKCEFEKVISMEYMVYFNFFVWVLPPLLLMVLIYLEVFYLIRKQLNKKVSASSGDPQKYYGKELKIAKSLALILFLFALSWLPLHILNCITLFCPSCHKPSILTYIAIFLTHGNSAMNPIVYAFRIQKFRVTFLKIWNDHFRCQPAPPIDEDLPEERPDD
Experiment: Displacement of [3H]CCPA from human adenosine A1 receptor expressed in CHO cells
Assay type: cell-based
Provide the reported Ki of each item.
Answers are plain numbers, in nM.

| Compound Smiles | Unit String | Ki |
| --- | --- | --- |
| CCCn1c(=O)[nH]c2nc(-c3ccc(S(=O)(=O)N4CCN(Cc5cccc(Cl)c5)CC4)cc3)[nH]c2c1=O | nM | 1090 |

Next compound, please.
stdin: Ki for CCn1c(=O)[nH]c2nc(-c3ccc(S(=O)(=O)N4CCN(Cc5ccc(OC)cc5)CC4)cc3)[nH]c2c1=O ?
stdout: 3800

* * *

Biological target: Adenosine receptor A1 (Rattus norvegicus)
Sequence (P25099 whole entry): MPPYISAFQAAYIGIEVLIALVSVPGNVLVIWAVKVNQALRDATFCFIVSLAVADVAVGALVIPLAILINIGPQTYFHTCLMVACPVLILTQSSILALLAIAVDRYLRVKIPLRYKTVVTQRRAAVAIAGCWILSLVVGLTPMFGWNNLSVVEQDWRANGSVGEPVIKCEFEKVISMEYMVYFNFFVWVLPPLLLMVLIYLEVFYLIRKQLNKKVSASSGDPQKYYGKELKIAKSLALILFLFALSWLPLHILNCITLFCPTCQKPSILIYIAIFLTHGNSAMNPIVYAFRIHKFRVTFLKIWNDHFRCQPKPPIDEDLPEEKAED
Assay: Displacement of [3H]CCPA from rat brain cortex adenosine A1 receptor
Quantity Kind: log10 of Ki (log10 of the value in nM)
Give log10 of Ki, with Ki taken in nM.

| Compound Smiles | Quantity Kind | Assay Result |
| --- | --- | --- |
| CCn1c(=O)[nH]c2nc(-c3ccc(S(=O)(=O)N4CCN(Cc5ccc(C)cc5)CC4)cc3)[nH]c2c1=O | log10 of Ki | 1.59 |
| CCCn1c(=O)[nH]c2nc(-c3ccc(S(=O)(=O)N4CCCCC4)cc3)[nH]c2c1=O | log10 of Ki | 1.96 |
| CCn1c(=O)[nH]c2nc(-c3ccc(S(=O)(=O)N4CCN(Cc5ccccc5)CC4)cc3)[nH]c2c1=O | log10 of Ki | 2.40 |
| C#CCn1c(=O)[nH]c2nc(-c3ccc(S(=O)(=O)N4CCN(c5ccc(Cl)cc5)CC4)cc3)[nH]c2c1=O | log10 of Ki | 3.16 |

Parameters: items (list). Returns: log10 of Ki for each item.
1. CCn1c(=O)[nH]c2nc(-c3ccc(S(=O)(=O)N4CCN(Cc5ccc(Cl)cc5)CC4)cc3)[nH]c2c1=O
2. CCCn1c(=O)[nH]c2nc(-c3ccc(S(=O)(=O)N4CCN(Cc5ccc(F)cc5)CC4)cc3)[nH]c2c1=O

stdout:
3.44
1.53

Parameters: items (list). Returns: log10 of Ki for each item.
1. CCn1c(=O)[nH]c2nc(-c3ccc(S(=O)(=O)N4CCN(Cc5cccc(C(F)(F)F)c5)CC4)cc3)[nH]c2c1=O
2. CCn1c(=O)[nH]c2nc(-c3ccc(S(=O)(=O)N4CCN(Cc5ccc(F)cc5)CC4)cc3)[nH]c2c1=O
3. CCn1c(=O)[nH]c2nc(-c3ccc(S(=O)(=O)N4CCN(Cc5cccc(F)c5)CC4)cc3)[nH]c2c1=O
4. CCCn1c(=O)[nH]c2nc(-c3ccc(S(=O)(=O)NC4CCN(Cc5ccccc5)CC4)cc3)[nH]c2c1=O
5. CCn1c(=O)[nH]c2nc(-c3ccc(S(=O)(=O)N4CCN(Cc5ccc(OC)cc5)CC4)cc3)[nH]c2c1=O

stdout:
2.75
2.47
2.56
1.59
2.55
